Catalogue of selectivity ratio values
assay summary: Toxicity in the rat (oral), dose at which toxic symptoms occur
Type: in vivo, rat (Sprague Dawley, male)
particulars: in vivo, read-out: Q: quotient of the acute toxic dose and the antiarrhythmic ED 50%
Give only the figure.

Below, 3 molecules whose answers are already recorded.
cpd smiles | selectivity ratio
C1CCN2C[C@@H]3C[C@@H](CN4CCCC[C@@H]34)[C@H]2C1 | 4.1
Nc1ccc(C(=O)N2CC3CC(CN(Cc4ccccc4)C3)C2)cc1 | 7.3
c1ccc(CN2CC3CC(C2)CN(Cc2ccccc2)C3)cc1 | 4.4

Read the next record carefully.
// query Give its selectivity ratio value. Item: c1ccc(CN2CC3CC(C2)CN(CC(c2ccccc2)c2ccccc2)C3)cc1
// result 7.7

----------
System: rat
assay summary: Toxicity in the rat (oral), dose at which toxic symptoms occur
Assay type: in vivo, rat (Sprague Dawley, male)
particulars: changes in the initial ECG, cyanosis or cramp
reported metric: Toxic dose (dose after whose administration the first toxic symptoms are observed) (mg/kg)
Number only, in mg/kg; omit the unit.

compound | assay value
Nc1ccc(C(=O)N2CC3CC(CN(Cc4ccccc4)C3)C2)cc1 [C, N-(4-Aminobenzoyl)-N'-benzylbispidine] | 46.4
C1CCN2C[C@@H]3C[C@@H](CN4CCCC[C@@H]34)[C@H]2C1 [Sparteine, sparteine] | 464
c1ccc(CN2CC3CC(C2)CN(Cc2ccccc2)C3)cc1 [B, N,N'-bisbenzylbispidine] | 100

// query Given the entry c1ccc(CN2CC3CC(C2)CN(CC(c2ccccc2)c2ccccc2)C3)cc1 [A] , report its measured Toxic dose (dose after whose administration the first toxic symptoms are observed).
// result 100
